System: Pseudomonas aeruginosa
Test: Antibacterial activity against Pseudomonas aeruginosa after 16 to 18 hrs by serial dilution method
Type: functional
Details: Pseudomonas aeruginosa
RESULT TYPE: MIC (µg/mL)

CPD SMILES	UNIT OF MEASURE	MIC
Cc1cccc(OCc2ccccc2-c2nn(CNc3cc(C)ccc3Cl)c(=S)o2)c1	µg/mL	25
Cc1cccc(OCc2ccccc2-c2nnc(-c3cccnc3Cl)o2)c1	µg/mL	12.5
Cc1ccccc1OCc1ccccc1-c1nnc(-c2ccccc2F)o1	µg/mL	6.25

[1] S=c1oc(-c2ccccc2COc2ccc(Cl)cc2)nn1CN1CCOCC1
[2] Cc1ccc(OCc2ccccc2-c2nnc(SCc3ccc(Cl)cc3Cl)o2)cc1
[3] Cc1cccc(OCc2ccccc2-c2nn(CNc3ccc(Cl)cc3C(=O)C(F)(F)F)c(=S)o2)c1
Please rank these compounds by MIC in descending order. Sort and list the labels as requested.
3, 1, 2
(3: 25 µg/mL, 1: 12.5 µg/mL, 2: 6.25 µg/mL)

[A] Cc1cccc(OCc2ccccc2-c2nn(CN3CCOCC3)c(=S)o2)c1
[B] Cc1cccc(OCc2ccccc2-c2nnc(-c3ccccc3F)o2)c1
Out of A and B , name the one with the higher MIC. Answer with the label corresponding to your selection.
A
(A: 12.5 µg/mL, B: 6.25 µg/mL)

====

Tested on: Aspergillus fumigatus
Assay: Antifungal activity against Aspergillus fumigatus after 16 to 18 hrs by serial dilution method
Format: functional
Conditions: Aspergillus fumigatus
RESULT TYPE: MIC (µg/mL)

The examples below pair each entry with its known result.
CPD SMILES	UNIT OF MEASURE	READOUT NUMBER
Cc1ccc(Cl)c(NCn2nc(-c3ccccc3COc3ccc(Cl)cc3)oc2=S)c1	µg/mL	25
Cc1cccc(OCc2ccccc2-c2nnc(-c3ccccc3)o2)c1	µg/mL	25
Cc1ccc(OCc2ccccc2-c2nnc(-c3cccc4ncccc34)o2)cc1	µg/mL	25

[P] Cc1ccccc1OCc1ccccc1-c1nnc(-c2cccc3ncccc23)o1
[Q] Cc1cccc(OCc2ccccc2-c2nnc(-c3ccccc3F)o2)c1
[R] Cc1cccc(CSc2nnc(-c3ccccc3COc3cccc(C)c3)o2)c1
Please rank these molecules by MIC in descending order. Sort and list the labels as requested.
P, Q, R
(P: 25 µg/mL, Q: 12.5 µg/mL, R: 6.25 µg/mL)

====

System: Klebsiella pneumoniae
Assay: Antibacterial activity against Klebsiella pneumoniae after 16 to 18 hrs by serial dilution method
Type: functional
Settings: Klebsiella pneumoniae
RESULT TYPE: MIC (µg/mL)

CPD SMILES	UNIT OF MEASURE	READOUT NUMBER
Clc1ccc(OCc2ccccc2-c2nnc(-c3cccnc3Cl)o2)cc1	µg/mL	12.5
COc1cc(-c2nnc(-c3ccccc3COc3ccc(Cl)cc3)o2)cc(OC)c1OC	µg/mL	6.25
Clc1ccc(OCc2ccccc2-c2nnc(-c3cccc4ncccc34)o2)cc1	µg/mL	25
Cc1ccc(OCc2ccccc2-c2nnc(-c3ccc(Cl)cc3)o2)cc1	µg/mL	25
Cc1ccccc1OCc1ccccc1-c1nnc(SCc2ccccc2)o1	µg/mL	25
Cc1ccc(Cl)c(NCn2nc(-c3ccccc3COc3ccc(Cl)cc3)oc2=S)c1	µg/mL	25
Cc1ccc(OCc2ccccc2-c2nnc(-c3cc(C)cc(C)c3)o2)cc1	µg/mL	12.5
Cc1cccc(OCc2ccccc2-c2nnc(SCc3ccc(Cl)cc3Cl)o2)c1	µg/mL	6.25

[I] Cc1ccccc1OCc1ccccc1-c1nnc(-c2ccccc2F)o1
[II] Cc1ccc(OCc2ccccc2-c2nnc(SCc3ccc(Cl)cc3)o2)cc1
[III] Clc1ccc(OCc2ccccc2-c2nnc(-c3ccccc3)o2)cc1
Please rank these molecules by MIC in descending order. Sort and list the labels as requested.
III, II, I
(III: 25 µg/mL, II: 12.5 µg/mL, I: 6.25 µg/mL)

====

Test system: Trichophyton mentagrophytes
Assay: Antifungal activity against Trichophyton mentagrophytes after 16 to 18 hrs by serial dilution method
Format: functional
Conditions: Trichophyton mentagrophytes
RESULT TYPE: MIC (µg/mL)

CPD SMILES	MIC, µg/mL
Cc1cccc(OCc2ccccc2-c2nn(CNc3cccc(C(F)(F)F)c3)c(=S)o2)c1	12.5
Cc1ccccc1OCc1ccccc1-c1nnc(-c2ccccc2)o1	25

[A] COc1cc(-c2nnc(-c3ccccc3COc3cccc(C)c3)o2)cc(OC)c1OC
[B] Cc1ccccc1OCc1ccccc1-c1nnc(-c2ccccc2F)o1
[C] O=C(c1cc(Cl)ccc1NCn1nc(-c2ccccc2COc2ccc(Cl)cc2)oc1=S)C(F)(F)F
rank_up(items): orders items by reported MIC in ascending numerical order. Sort and list the labels as requested.
B, A, C
(B: 6.25 µg/mL, A: 12.5 µg/mL, C: 25 µg/mL)

====

Tested on: Escherichia coli
Test: Antibacterial activity against Escherichia coli after 16 to 18 hrs by serial dilution method; note: test concentration or dose not given here
Format: functional
Each record here notes measured inhibition zone (IZ).

CPD SMILES	RESULT TYPE	RESULT
Cc1ccccc1OCc1ccccc1-c1nn(CNc2cccc(C(F)(F)F)c2)c(=S)o1	inhibition zone (IZ)	16 mm
Cc1cccc(OCc2ccccc2-c2nnc(-c3cccc4ncccc34)o2)c1	inhibition zone (IZ)	<10 mm
Clc1ccc(OCc2ccccc2-c2nnc(-c3cccc(Br)c3)o2)cc1	inhibition zone (IZ)	<10 mm

State the recorded inhibition zone (IZ) for this entry: Clc1ccc(OCc2ccccc2-c2nnc(-c3ccccc3)o2)cc1
<10 mm

State the recorded inhibition zone (IZ) for this entry: O=C(c1cc(Cl)ccc1NCn1nc(-c2ccccc2COc2ccc(Cl)cc2)oc1=S)C(F)(F)F
<10 mm

====

System: Aspergillus fumigatus
Assay: Antifungal activity against Aspergillus fumigatus after 16 to 18 hrs by serial dilution method
Type: functional
Details: Aspergillus fumigatus
RESULT TYPE: MIC (µg/mL)

CPD SMILES	MIC (µg/mL)
Clc1ccc(OCc2ccccc2-c2nnc(-c3ccccc3)o2)cc1	25

[A] Cc1ccccc1OCc1ccccc1-c1nnc(SCc2ccc(Cl)cc2Cl)o1
[B] Cc1cccc(OCc2ccccc2-c2nnc(-c3ccc(Cl)cc3)o2)c1
Out of A and B , name the one with the higher MIC. Answer with the label corresponding to your selection.
B
(B: 25 µg/mL, A: 6.25 µg/mL)

====

Each record here notes measured inhibition zone (IZ).
Test system: Trichophyton mentagrophytes
Test: Antifungal activity against Trichophyton mentagrophytes after 16 to 18 hrs by serial dilution method; for IZ: test concentration or dose not given here
Format: functional
Write down the numeric answer in mm and omit the unit.

COMPOUND	inhibition zone (IZ) [mm]
Cc1ccccc1OCc1ccccc1-c1nnc(SCc2ccc(Cl)cc2Cl)o1	11
Cc1ccc(OCc2ccccc2-c2nnc(-c3ccccc3F)o2)cc1	16
Cc1ccc(OCc2ccccc2-c2nnc(SCc3ccc(Cl)cc3)o2)cc1	11
COc1cc(-c2nnc(-c3ccccc3COc3ccccc3C)o2)cc(OC)c1OC	16
Cc1cccc(CSc2nnc(-c3ccccc3COc3ccccc3C)o2)c1	11
Cc1cccc(OCc2ccccc2-c2nnc(-c3ccccc3F)o2)c1	16
COc1cc(-c2nnc(-c3ccccc3COc3ccc(Cl)cc3)o2)cc(OC)c1OC	16
S=c1oc(-c2ccccc2COc2ccc(Cl)cc2)nn1CN1CCOCC1	11
Cc1cccc(OCc2ccccc2-c2nn(CNc3cccc(C(F)(F)F)c3)c(=S)o2)c1	11
Cc1ccccc1OCc1ccccc1-c1nnc(SCc2ccc(Cl)cc2)o1	11

State the recorded inhibition zone (IZ) for this entry: Cc1ccc(OCc2ccccc2-c2nnc(SCc3cccc(C)c3)o2)cc1
11

State the recorded inhibition zone (IZ) for this entry: Cc1ccc(OCc2ccccc2-c2nnc(SCc3ccc(Cl)cc3Cl)o2)cc1
16

State the recorded inhibition zone (IZ) for this entry: Cc1cccc(OCc2ccccc2-c2nn(CN3CCOCC3)c(=S)o2)c1
11

State the recorded inhibition zone (IZ) for this entry: Cc1cc(C)cc(-c2nnc(-c3ccccc3COc3ccccc3C)o2)c1
11

State the recorded inhibition zone (IZ) for this entry: Cc1ccc(OCc2ccccc2-c2nn(CNc3cccc(C(F)(F)F)c3)c(=S)o2)cc1
16

State the recorded inhibition zone (IZ) for this entry: Fc1ccccc1-c1nnc(-c2ccccc2COc2ccc(Cl)cc2)o1
16

State the recorded inhibition zone (IZ) for this entry: Cc1cc(C2CCCCC2)n(O)c(=O)c1.NCCO [CICLOPIROX OLAMINE]
27

State the recorded inhibition zone (IZ) for this entry: Cc1ccc(OCc2ccccc2-c2nnc(-c3cc(C)cc(C)c3)o2)cc1
11

State the recorded inhibition zone (IZ) for this entry: Cc1cccc(OCc2ccccc2-c2nnc(-c3cc(C)cc(C)c3)o2)c1
11

State the recorded inhibition zone (IZ) for this entry: Cc1ccccc1OCc1ccccc1-c1nn(CNc2cccc(C(F)(F)F)c2)c(=S)o1
16

State the recorded inhibition zone (IZ) for this entry: FC(F)(F)c1cccc(NCn2nc(-c3ccccc3COc3ccc(Cl)cc3)oc2=S)c1
16

====

Test system: Trichophyton mentagrophytes
Assay: Antifungal activity against Trichophyton mentagrophytes after 16 to 18 hrs by serial dilution method
Format: functional
Conditions: Trichophyton mentagrophytes
RESULT TYPE: MIC (µg/mL)

[P] Cc1ccc(OCc2ccccc2-c2nnc(SCc3cccc(C)c3)o2)cc1
[Q] Cc1cccc(OCc2ccccc2-c2nnc(-c3ccccc3F)o2)c1
Out of P and Q , name the one with the higher MIC. Answer with the label corresponding to your selection.
P
(P: 12.5 µg/mL, Q: 6.25 µg/mL)

Just for reference, ChEMBL document CHEMBL1275272 is where these values come from.
